B1: RPAIN (parent)
chain: ISEYEKSLQFDEKCLSIMLAEWEA

# Variants of: B1
# assay_info: protein stability index of a GFP-peptide fusion (GPS, HEK-293T) (PSI 1-6); higher = more stable;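 further: lentivirally expressed fusions sorted by FACS into six bins by GFP to DsRed ratio, PSI derived from sequencing read proportions per bin multiplied by bin number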
# stated_conditions: c terminus: a fixed tail appended
Note to self: values exactly at 2 are Fulfilled. So protein stability index at or above 2 is Fulfilled, below is Not fulfilled.

polymer_sequence: IIEYEKSLQFDEKCLSIMLAEWEA [S2I]
answer_label: Not fulfilled
--
polymer_sequence: ISEYEKSLQFDEKCLSIMLAEWMA [E23M]
answer_label: Fulfilled
--
polymer_sequence: ISEYEKSLQFDEKCLSIMLAEWEF [A24F]
answer_label: Fulfilled
--
polymer_sequence: ISEYEKSLQFDEKCLSIMLAEWEK [A24K]
answer_label: Fulfilled
--
polymer_sequence: ISEYMKSLQFDEKCLSIMLAEWEA [E5M]
answer_label: Fulfilled
--
polymer_sequence: ISEYEKSLQEDEKCLSIMLAEWEA [F10E]
answer_label: Fulfilled
--
polymer_sequence: ISEYVKSLQFDEKCLSIMLAEWEA [E5V]
answer_label: Fulfilled
--
polymer_sequence: ISEYEKSLQFDEKCLSRMLAEWEA [I17R]
answer_label: Fulfilled
--
polymer_sequence: ISEYEKSLQFGEKCLSIMLAEWEA [D11G]
answer_label: Fulfilled
--
polymer_sequence: ISEYEKSLQFDEKCLFIMLAEWEA [S16F]
answer_label: Fulfilled
--
polymer_sequence: ISEYEKSSQFDEKCLSIMLAEWEA [L8S]
answer_label: Fulfilled
--
polymer_sequence: ISEYEKSLQFDEKCQSIMLAEWEA [L15Q]
answer_label: Fulfilled
--
polymer_sequence: ISEYEKSLQFDEKCLSIMLAEAEA [W22A]
answer_label: Fulfilled
--
polymer_sequence: ISEYEKSLQFDEKCLSFMLAEWEA [I17F]
answer_label: Not fulfilled
--
polymer_sequence: ISEYEKSLQLDEKCLSIMLAEWEA [F10L]
answer_label: Fulfilled
--
polymer_sequence: ISEYEKSLQFDENCLSIMLAEWEA [K13N]
answer_label: Not fulfilled
--
polymer_sequence: ISEYEKSLQFDEKCLSIMLAEWKA [E23K]
answer_label: Fulfilled
--
polymer_sequence: ISVYEKSLQFDEKCLSIMLAEWEA [E3V]
answer_label: Fulfilled
--
polymer_sequence: KSEYEKSLQFDEKCLSIMLAEWEA [I1K]
answer_label: Fulfilled
--
polymer_sequence: RSEYEKSLQFDEKCLSIMLAEWEA [I1R]
answer_label: Fulfilled
--
polymer_sequence: ITEYEKSLQFDEKCLSIMLAEWEA [S2T]
answer_label: Not fulfilled
